Attribute: log10 of IC50
Target: GIST430/654 cell line expressing mutated constitutively active cKIT receptor tyrosine kinase (Δ560-576 deletion and V654A point mutation) (Homo sapiens, UniProt P10721, DEL560-576/V654A)
Construct: endogenous in cells
Sequence (P10721 with tags, fused parts or gaps DEL560-576/V654A): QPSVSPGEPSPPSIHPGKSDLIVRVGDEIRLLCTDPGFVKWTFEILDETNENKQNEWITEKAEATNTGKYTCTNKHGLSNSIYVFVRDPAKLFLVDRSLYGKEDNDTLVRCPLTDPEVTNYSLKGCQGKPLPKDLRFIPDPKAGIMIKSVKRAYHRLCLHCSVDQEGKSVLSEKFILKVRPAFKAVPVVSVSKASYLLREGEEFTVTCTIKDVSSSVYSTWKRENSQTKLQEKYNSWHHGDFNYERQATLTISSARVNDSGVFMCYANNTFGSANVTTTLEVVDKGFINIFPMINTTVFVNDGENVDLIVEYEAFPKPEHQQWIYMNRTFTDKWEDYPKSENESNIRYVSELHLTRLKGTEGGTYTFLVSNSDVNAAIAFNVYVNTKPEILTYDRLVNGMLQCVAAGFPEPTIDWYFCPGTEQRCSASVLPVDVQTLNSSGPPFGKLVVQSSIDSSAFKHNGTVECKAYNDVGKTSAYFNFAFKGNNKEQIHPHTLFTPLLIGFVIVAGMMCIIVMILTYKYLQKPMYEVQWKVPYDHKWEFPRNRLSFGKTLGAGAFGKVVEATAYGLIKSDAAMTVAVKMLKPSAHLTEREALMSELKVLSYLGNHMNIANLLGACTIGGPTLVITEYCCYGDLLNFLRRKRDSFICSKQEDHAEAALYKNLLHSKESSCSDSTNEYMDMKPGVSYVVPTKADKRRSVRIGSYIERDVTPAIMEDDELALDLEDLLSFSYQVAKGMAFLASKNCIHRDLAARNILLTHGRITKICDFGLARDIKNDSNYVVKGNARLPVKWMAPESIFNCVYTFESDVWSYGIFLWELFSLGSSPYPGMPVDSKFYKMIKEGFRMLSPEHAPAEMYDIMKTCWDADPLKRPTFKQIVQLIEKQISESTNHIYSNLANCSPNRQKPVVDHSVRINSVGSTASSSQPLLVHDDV
Assay: Cellular cKIT autophosphorylation (phospho-Y307-cKIT, Luminex bead assay) in GIST430/654 cells
Conditions: compounds 45 min, read-out: GIST 430/654 IC50
measurement-type: log10 of IC50 (log10 of the value in nM)

>>> measured_value("COc1ccn2c(-c3cc(NCc4ccc(-c5cn(C)nc5N)cc4)ncn3)cnc2c1")
2.95
>>> measured_value("c1nc(NCc2ccc(-c3cocn3)cc2)cc(-c2cnc3cc(OCCCN4CCCC4)ccn23)n1")
1.67
>>> measured_value("COc1ccn2c(-c3cc(NCc4ccc(-c5cc(C)no5)cc4)ncn3)cnc2c1")
2.18
>>> measured_value("Cn1cc(-c2ccc(CNc3cc(-c4cnc5cc(OCCN6CC7(COC7)C6)ccn45)ncn3)cc2)cn1")
1.93
>>> measured_value("COc1ccn2c(-c3cc(NCc4ccc(-c5cnn(CCO)c5)cc4)ncn3)cnc2c1")
2.26
>>> measured_value("Cn1ncc(-c2ccc(CNc3cc(-c4cnc5cc(OCCN6CC7CC7C6)ccn45)ncn3)cc2)n1 (centres unmarked)")
2.11
>>> measured_value("COc1ccn2c(-c3cc(NCc4ccc(-c5cnn(C)c5)c(F)c4)ncn3)cnc2c1")
2.08
>>> measured_value("Cn1cc(-c2ccc(CNc3cc(-c4cnc5cc(OC6CCNCC6)ccn45)ncn3)cc2)cn1")
2.41

* * *

Experiment: Determination of Efflux-Ratio (ER) in Caco-2 cells
Details: human, Caco-2, pH 7.4
measurement-type: efflux ratio at 2 h, 1 μM

>>> measured_value("COc1ccn2c(-c3cc(NCc4ccc(-c5cnn(C)c5)cc4)ncn3)cnc2c1")
"< 15"
>>> measured_value("CN1CCN(CCOc2ccn3c(-c4cc(NCc5ccc(-c6cnn(C)c6)cc5)ncn4)cnc3c2)CCC1=O")
"15 to 50"
>>> measured_value("FC1(F)CCN(c2ccc(CNc3cc(-c4cnc5ccccn45)ncn3)cn2)C1")
"< 15"
>>> measured_value("Cn1cc(-c2ccc(CNc3cc(-c4cnc5cc(OCCN6CCOC(F)(F)C6)ccn45)ncn3)cc2)cn1")
"< 15"
>>> measured_value("Cc1nc(-c2ccc(CNc3cc(-c4cnc5cc(OCCO)ccn45)ncn3)cc2)co1")
"< 15"

* * *

Attribute: efflux ratio at 2 h, 1 μM
Test: Determination of Efflux-Ratio (ER) in Caco-2 cells
Conditions: human, Caco-2, pH 7.4
measurement-type: efflux ratio at 2 h, 1 μM

>>> measured_value("Cn1cc(-c2ccc(CNc3cc(-c4cnc5cc(OCCCN6CCC(C)(F)CC6)ccn45)ncn3)cc2)cn1 [A262]")
"< 15"
>>> measured_value("Cn1cc(-c2ccc(CNc3cc(-c4cnc5cc(OCCN6CC(F)C6)ccn45)ncn3)cc2)cn1 [A140]")
"< 15"
>>> measured_value("Cn1cc(-c2ccc(CNc3cc(-c4cnc5cc(OCCN6CC[S+]([O-])CC6)ccn45)ncn3)cc2)cn1 [A194]")
"> 50"
>>> measured_value("Cn1cc(-c2ccc(CNc3cc(-c4cnc5cc(OCCS(C)(=O)=O)ccn45)ncn3)cc2)cn1 [A224]")
"15 to 50"
>>> measured_value("Cn1cc(-c2ccc(CNc3cc(-c4cnc5cc(OCCN6CC7(COC7)C6)ccn45)ncn3)cc2)cn1 [A114]")
"15 to 50"
>>> measured_value("Cn1cc(-c2ccc(CNc3cc(-c4cnc5cc(OCCN6CCn7cccc7C6)ccn45)ncn3)cc2)cn1 [A218]")
"< 15"
>>> measured_value("Cn1ncc(-c2ccc(CNc3cc(-c4cnc5cc(OCC6CCN(C7COC7)CC6)ccn45)ncn3)cc2)n1 [A76]")
"< 15"
>>> measured_value("Cn1cc(-c2ccc(CNc3cc(-c4cnc5cc(OCCN6CCC(C)(F)CC6)ccn45)ncn3)cc2)cn1 [A196]")
"< 15"
>>> measured_value("Cn1cc(-c2ccc(CNc3cc(-c4cnc5cc(OCCN6CCn7nccc7C6)ccn45)ncn3)cc2)cn1 [A216]")
"< 15"
>>> measured_value("COCCOc1ccn2c(-c3cc(NCc4ccc(-c5cnn6c5CCC6)cc4)ncn3)cnc2c1 [A17]")
"< 15"
>>> measured_value("Cc1noc(C2CN(CCOc3ccn4c(-c5cc(NCc6ccc(-c7cnn(C)c7)cc6)ncn5)cnc4c3)C2)n1 [A213]")
"< 15"
>>> measured_value("CC(Nc1cc(-c2cnc3cc(OCCCN4CCC4)ccn23)ncn1)c1ccc(-c2cnn(C)c2)cc1 (stereo not shown) [A249]")
"> 50"
>>> measured_value("COCCOc1ccn2c(-c3cc(NCc4ccc(-c5cnn(C)n5)cc4)ncn3)cnc2c1 [A71]")
"< 15"
>>> measured_value("CC1(F)CCN(CCCOc2ccn3c(-c4cc(NCc5ccc(-c6cocn6)cc5)ncn4)cnc3c2)CC1 [A263]")
"< 15"
>>> measured_value("Cn1cc(-c2ccc(CNc3cc(-c4cnc5cc(OCC6CNC6)ccn45)ncn3)cc2)cn1 [A167]")
"> 50"
>>> measured_value("COC1(C)CCN(CCOc2ccn3c(-c4cc(NCc5ccc(-c6cnn(C)c6)cc5)ncn4)cnc3c2)CC1 [A220]")
"< 15"

Where do the numbers come from? From patent US12655142B2.
